# System: p38-beta
# Construct: gene MAPK11
# assay conditions: concentration: 1 μM, replicates: in singlicate; n = 1;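 also: KINOMEscan kinase panel screen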
assay readout: %Inh (%)
Response body: numeric value in %, unit text excluded.

compound	system	%Inh (%)
Cc1ccccc1Cn1ccn2c(=O)cc(N3CCOCC3)nc12 [GSK2269905]	p38-beta	0
Fc1ccc(-c2nn3cccc(F)c3c2-c2ccncc2)cc1 [GW475620]	p38-beta	16

Ask | Reported %Inh for COc1cc2ncnc(Nc3cccc(Br)c3)c2cc1OC.Cl [GI230329] : what is it?
Reply | 0

Ask | For the compound CCCCc1nn2ncccc2c1-c1ccnc(NC2CC2)n1 [GW684374] , what %Inh is on record?
Reply | 0

Ask | Need %Inh of Cc1nccc(-c2c(-c3ccc(F)cc3)ncn2CCCN2CCOCC2)n1.Cl [SB-282975] , thanks.
Reply | 26

----------
# Tested on: ABL1-phosphorylated
# assay conditions: concentration: 1 μM, replicates: in singlicate; n = 1
assay readout: %Inh (%)
Write the number in % without appending the unit.

The cases that follow already have their %Inh on record.
compound	system	reported value
CCCCc1nn2ncccc2c1-c1ccnc(NC2CC2)n1 [GW684374]	ABL1-phosphorylated	0
Cc1c(Cn2c3ccccc3n3c(=O)cc(N4CCOCC4)nc23)cccc1C(F)(F)F [GSK2306394]	ABL1-phosphorylated	0
Cc1ccccc1Cn1ccn2c(=O)cc(N3CCOCC3)nc12 [GSK2269905]	ABL1-phosphorylated	0
Cc1ccc(NC(=O)Nc2ccc(Cl)cc2)cc1-c1ccc(C(=O)Nc2ccncc2)cc1 [GSK1398472]	ABL1-phosphorylated	5
O=c1cc(N2CCOCC2)nc2n(Cc3cccc(Cl)c3Cl)c3ccccc3n12 [GSK2299009]	ABL1-phosphorylated	0

Ask | Sample FC(F)(F)c1ccccc1-c1cc(-c2c[nH]nc2-c2ccccn2)ccn1 [GW679396] — what was its %Inh?
Reply | 0

Ask | Item under review: Nc1ncnc2occ(-c3ccc4c(c3)CCN4C(=O)Cc3cc(F)ccc3F)c12 [GSK2645446] . Reported %Inh?
Reply | 3

----------
# %Inh per entry
# System: ROS1
# assay conditions: concentration: 1 μM, replicates: in singlicate; n = 1
The reply should be a number in %, with the unit left off.

Recorded results for 8 molecules are shown here.
molecule	assay readout	reported value
CCc1ccc(-c2ccc3c(c2)-c2n[nH]cc2S(=O)(=O)N3C)cc1	%Inh	0
Cc1cnc(N)c(/C=C/c2cncc(C(=O)NCCc3ccc(Cl)cc3Cl)c2)c1.Cl [GSK190937]	%Inh	3
CNCc1ccc2nc(NC(=O)c3ccc(C(C)(C)C)cc3)cn2c1	%Inh	9
COC(=O)c1cccc(NC(=O)NC2CCN(c3ccnc(Nc4ccc(F)cc4)n3)C2)c1 (stereo not drawn) [GSK1379725]	%Inh	0
Fc1ccc(-c2nn3cccc(F)c3c2-c2ccncc2)cc1 [GW475620]	%Inh	0
COc1ccc(CSc2nnc(-c3ccc4ncsc4c3)o2)cc1C(F)(F)F	%Inh	0
CSc1ccc(-c2nc3n(c2-c2ccncc2)CCC3)cc1 [SKF-105561]	%Inh	6
COc1ccc(-c2coc3ccc(-c4nnc(C)o4)cc23)cc1	%Inh	0

Now examine the next entry.
Ask | Request the reported %Inh associated with O=C1NC(=O)C(c2ccc(Cl)cc2)=C1Nc1ccc(O)cc1 [SB-340867]
Reply | 0
